Assay: modulators of S6 phosphorylation in cells, primary screen, cell-based, A549, cytoblot, luminescence, serum-stimulated (AID 1158);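 further: serum-stimulated A549 lung adenocarcinoma cells; signal is phosphorylated S6 detected by cytoblot immunostaining with HRP secondary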
Details: A549 phospho-S6 cytoblot, 5 h, higher = more signal
Please mark Condition met if the recorded z-score is equal to or greater than -0.5, and Condition not met if it falls below.

[
  {
    "molecule": "C[C@]1(C(=O)NCC(F)(F)F)c2ccccc2C(=O)N(Cc2ccccc2)[C@H]1c1ccc(CO)cc1",
    "group": "Condition not met"
  }
]

API: above_or_equal(metric=z-score, cutoff=-0.5) for item C=C(/C(=C/C[C@@H](OC(C)=O)c1ccc(OCCO)cc1)c1cc(C(=O)OC)ccc1OC)C(C)C Condition met

API: above_or_equal(metric=z-score, cutoff=-0.5) for item CN1C(=O)C2C=CC(C(O)c3cc(C(F)(F)F)cc(C(F)(F)F)c3)N(NC(=O)OC(C)(C)C)C2C1=O (stereo unspecified) Condition not met

API: above_or_equal(metric=z-score, cutoff=-0.5) for item COCCOC(=O)N1C(=O)[C@@]2(c3cc(C#CCNC(N)=O)ccc31)[C@H](c1ccc(OCCO)cc1)N1[C@H](c3ccccc3)[C@H](c3ccccc3)OC(=O)[C@H]1[C@@H]2C(N)=O Condition met

API: above_or_equal(metric=z-score, cutoff=-0.5) for item CC(=O)n1cc(C(O)C2C=CC3C(=O)N(c4ccccc4)C(=O)C3N2Nc2ccc(C(C)C)cc2)c2ccccc21 (stereo unspecified) Condition not met

API: above_or_equal(metric=z-score, cutoff=-0.5) for item Cc1c(NC(=O)/C(C#N)=C/c2ccccc2Cl)c(=O)n(-c2ccccc2)n1C Condition met

API: above_or_equal(metric=z-score, cutoff=-0.5) for item C=C(C)C1CCC(C(O)C2C=CC3C(=O)N(C)C(=O)C3N2Nc2cc(OC)c(OC)c(OC)c2)CC1 (stereo unspecified) Condition not met

API: above_or_equal(metric=z-score, cutoff=-0.5) for item COC(=O)[C@@]1(Cc2ccc(F)cc2)[C@H]2c3cc(C(=O)N(C)C)n(Cc4ccc(O)c(OC)c4)c3C[C@H]2CN1C(=O)c1ccccc1 Condition met

API: above_or_equal(metric=z-score, cutoff=-0.5) for item [N-]=[N+]=NCc1ccccc1[C@H]1OC(c2ccc(OCCCO)cc2)=N[C@@]1(CCS(=O)(=O)c1ccccc1)C(=O)NCc1ccccc1 Condition met

API: above_or_equal(metric=z-score, cutoff=-0.5) for item O=C(O)[C@H]1C[C@H]2C(=O)N[C@@H](Cc3ccccc3)C(=O)N2[C@H]1c1cccc(OCCO)c1 Condition met

---

Test: binders of probe aFST on microarray, primary screen, stem cell growth factor project, biochemical, small-molecule microarray, fluorescence 635/667 (AID 1086);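 further: score merges 667 nm fluorescence with signal-to-noise of each printed compound spot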
Settings: higher = more signal
Item-by-item account of composite z-score

[
  {
    "molecule": "COc1ccc(C#Cc2ccc3c(c2)[C@]2(C(=O)N3)[C@H](C(=O)N3CCCCCCC3)[C@H]3C(=O)O[C@H](c4ccccc4)[C@H](c4ccccc4)N3[C@@H]2c2ccc(O)cc2)cc1",
    "composite z-score": 2.24
  }
]

Supply measured composite z-score of CN1C=C(C(=O)OCCS(C)(=O)=O)C(C(=O)OCCS(C)(=O)=O)=CC(c2ccc(CO)cc2)=CC1c1cccs1 (stereo not given) in your reply. 0.0216

Supply measured composite z-score of CC1(C)C(=O)C(c2ccccc2)=C2CN3C(=O)N(CCc4ccccc4)C(=O)C3(Cc3ccc(F)cc3)C=C21 (stereo not given) in your reply. 1.58

Supply measured composite z-score of C=C(C)[C@@H]1CC=C(C(O)C2C=CC3C(=O)N(c4ccccc4)C(=O)C3N2Nc2ccc(C#N)cc2)CC1 (stereo not given in full) in your reply. 1.53

Supply measured composite z-score of C=C[C@@H](OC)[C@H](OC(=O)Nc1ccc(OC)cc1)c1ccc(OC)c(O)c1 in your reply. -0.857

Supply measured composite z-score of COc1ccc(C(O)C2C=CC3C(=O)N(c4ccccc4)C(=O)C3N2Nc2ccccc2)cc1 (stereo not given) in your reply. 0.531

Supply measured composite z-score of CC(C)C(=C=CC[C@H](O)c1cccc(OCCO)c1)CCO in your reply. -0.045

Supply measured composite z-score of Cc1ccc(N2C(=O)c3ccccc3[C@](C)(C(=O)NCc3ccccc3)[C@@H]2c2ccc(CO)cc2)nc1 in your reply. 0.0665

Supply measured composite z-score of COCC(=C=CC[C@H](O)c1cccc(OCCO)c1)C[C@H](O)COCc1ccccc1 in your reply. 0.256

Supply measured composite z-score of COc1ccc(C(O)C2C=CC3C(=O)N(c4ccccc4)C(=O)C3N2Nc2ccccc2F)cc1 (stereo not given) in your reply. 0.115

Supply measured composite z-score of CCOC(=O)C[C@H]1[C@H](OC(=O)c2ccccc2-c2ccccc2)[C@@H](NC(=O)c2ccccc2)c2cc(OCCCO)ccc2N1C(=O)c1ccccc1 in your reply. 0.0801

Supply measured composite z-score of CN1C(=O)[C@@]2(Cc3ccccc3)N=C(c3ccc(OCCCO)cc3)O[C@H]2c2ccccc21 in your reply. 0.511

Supply measured composite z-score of C=CCN1C(=O)[C@]2(O[C@H](CCO)[C@@H]([Si](C)(C)c3ccc(OC)cc3)[C@@H]2C)c2cc(N3C(=O)COc4ccccc43)ccc21 in your reply. -0.0347

Supply measured composite z-score of C[C@]1(C(=O)NCC(F)(F)F)c2ccccc2C(=O)N(Cc2ccccc2)[C@H]1c1ccc(CO)cc1 in your reply. -0.0961

Supply measured composite z-score of CCOC(=O)C[C@H]1[C@H](OC(=O)c2ccc(-c3ccccc3)cc2)[C@@H](NC(=O)CC(C)C)c2cc(OCCCO)ccc2N1C(=O)c1ccccc1 in your reply. 0.547

Entry source: PubChem BioAssay
